- System: Acinetobacter baumanii T6474
- test_details: Bacterial growth minimal inhibitory concentration, microdilution
- Type: cell-based
- condition_notes: Acinetobacter baumannii, multiply-resistant, quinolone-resistant strain, cation-adjusted Mueller Hinton Broth
reported_metric: MIC (mg/L)

- compound: "Cn1cc(C(=O)O)c(=O)c2cc(F)c(N[C@H]3CC[C@H](CNCc4ccc5c(n4)NC(=O)CS5)CC3)nc21 [Example 13]"
  measured_on: "Acinetobacter baumanii T6474"
  measurement_units: "mg/L"
  MIC: 0.125
- compound: "O=C1CSc2ccc(CNC3CCN(c4nc5c(cc4F)c(=O)c(C(=O)O)cn5C4CC4)CC3)nc2N1 [Example 10]"
  measured_on: "Acinetobacter baumanii T6474"
  measurement_units: "mg/L"
  MIC: 0.25
- compound: "O=C1CSc2ccc(CNCC3CCN(Cc4nc5c(cc4F)c(=O)c(C(=O)O)cn5C4CC4)CC3)nc2N1 [Example 9]"
  measured_on: "Acinetobacter baumanii T6474"
  measurement_units: "mg/L"
  MIC: 8
- compound: "O=C1CSc2ccc(CNCC3CCN(c4nc5c(cc4F)c(=O)c(C(=O)O)cn5C4CC4)CC3)nc2N1 [Example 7]"
  measured_on: "Acinetobacter baumanii T6474"
  measurement_units: "mg/L"
  MIC: 2

a: O=C1CSc2ccc(CNCCC3CCN(c4nc5c(cc4F)c(=O)c(C(=O)O)cn5C4CC4)CC3)nc2N1 [Example 5]
b: CCn1cc(C(=O)O)c(=O)c2cc(F)c(N[C@H]3CC[C@H](CNCc4ccc5c(n4)NC(=O)CS5)CC3)nc21 [Example 15]
c: O=C1CSc2ccc(CN[C@H]3CC[C@H](Nc4nc5c(cc4F)c(=O)c(C(=O)O)cn5C4CC4)CC3)nc2N1 [Example 2]
d: O=C1CSc2ccc(CNCCN3CCN(c4nc5c(cc4F)c(=O)c(C(=O)O)cn5C4CC4)CC3)nc2N1 [Example 4]
e: Cn1cc(C(=O)O)c(=O)c2cc(F)c(N3CCC(CCNCc4ccc5c(n4)NC(=O)CS5)CC3)nc21 [Example 17]
Hello, I need these entries ordered by MIC, highest reading first. Thanks! Would you mind listing the labels in the order asked for?
d, a, c, e, b
(d: 2 mg/L, a: 1 mg/L, c: 0.5 mg/L, e: 0.125 mg/L, b: 0.063 mg/L)

I: O=C1CSc2ccc(CN3CCC(CCNc4nc5c(cc4F)c(=O)c(C(=O)O)cn5C4CC4)CC3)nc2N1 [Example 6]
II: Cn1cc(C(=O)O)c(=O)c2cc(F)c(N[C@H]3CC[C@H](CNCc4ccc5c(n4)NC(=O)CO5)CC3)nc21 [Example 14]
III: O=C1CSc2ccc(CNC[C@H]3CC[C@H](Nc4nc5c(cc4F)c(=O)c(C(=O)O)cn5C4CC4)CC3)nc2N1 [Example 1]
IV: O=C1COc2ccc(CNCCN3CCN(c4nc5c(cc4F)c(=O)c(C(=O)O)cn5C4CC4)CC3)nc2N1 [Example 12]
Order each entry by recorded MIC, climbing from the minimum. Would you mind listing the labels in the order asked for?
III, I, II, IV

1: Cn1cc(C(=O)O)c(=O)c2cc(F)c(N3CCC(CCNCc4ccc5c(n4)NC(=O)CO5)CC3)nc21 [Example 16]
2: O=C1CSc2ccc(CNC3CCN(CCc4nc5c(cc4F)c(=O)c(C(=O)O)cn5C4CC4)CC3)nc2N1 [Example 3]
// max by MIC over [ 1 , 2 ] Write down the label attached to your selection.
2
(2: 4 mg/L, 1: 0.5 mg/L)
